Items are presented alongside their recorded MIC.
# System: Escherichia coli
# EXPERIMENTAL DETAILS: Antibacterial activity against Escherichia coli ATCC 25922 measured by Muller-Hinton broth based microdilution assay
# Type: functional
The reply should consist of the numeric value with the unit placed after it.

{"COMPOUND STRING": "O=C1c2cccc3c(N/N=C/c4ccc5ccccc5c4)ccc(c23)C(=O)N1C(CO)CO", "OBSERVED MEASUREMENT": "32 µg/mL"}
{"COMPOUND STRING": "O=C1c2cccc3c(N/N=C/c4ccc(O)c(O)c4O)ccc(c23)C(=O)N1C(CO)CO", "OBSERVED MEASUREMENT": "16 µg/mL"}

Challenge: Give recorded MIC. `O=C1c2cccc(O)c2C(=O)c2c(O)cc(/C=N/Nc3ccc4c5c(cccc35)C(=O)N(C(CO)CO)C4=O)cc21`
Response given: 32 µg/mL

Challenge: Give recorded MIC. `CCCCCCCCCCCCn1cc(/C=N/Nc2ccc3c4c(cccc24)C(=O)N(C(CO)CO)C3=O)c2ccccc21`
Response given: 64 µg/mL

====

# EXPERIMENTAL DETAILS: Selectivity ratio of HC50 for hemolytic activity in human RBC to MIC for antibacterial activity against Pseudomonas aeruginosa
# Format: toxicity
# MEASUREMENT PARAMETERS: human red blood cells (erythrocytes)
RECORDED METRIC: selectivity ratio

{"COMPOUND STRING": "COc1ccc(/C=N/Nc2ccc3c4c(cccc24)C(=O)N(C(CO)CO)C3=O)cc1", "selectivity ratio": "> 2000"}

Then there is this compound:
Challenge: Give recorded selectivity ratio. `O=C1c2cccc3c(N/N=C/c4ccc5ccccc5c4)ccc(c23)C(=O)N1C(CO)CO`
Response given: > 2000

====

# Tested on: Escherichia coli
# EXPERIMENTAL DETAILS: Antibacterial activity against Escherichia coli ATCC 25922 measured by Muller-Hinton broth based microdilution assay
# Type: functional
Items are presented alongside their recorded MIC.
# unit: µg/mL | format: bare number

{"COMPOUND STRING": "COc1ccc(/C=N/Nc2ccc3c4c(cccc24)C(=O)N(C(CO)CO)C3=O)cc1", "EXPERIMENTAL SYSTEM": "Escherichia coli", "RECORDED METRIC": "MIC", "OBSERVED MEASUREMENT": 64}

Challenge: Give recorded MIC. `O=C1c2cccc3c(N/N=C/c4ccc(Cl)cc4Cl)ccc(c23)C(=O)N1C(CO)CO`
Response given: 256

Challenge: Give recorded MIC. `O=C1c2cccc3c(N/N=C/c4c[nH]c5ccccc45)ccc(c23)C(=O)N1C(CO)CO`
Response given: 64

Challenge: Give recorded MIC. `O=C1c2cccc3c(N/N=C/c4ccccc4Cl)ccc(c23)C(=O)N1C(CO)CO`
Response given: 64

Challenge: Give recorded MIC. `O=C1c2cccc3c(N/N=C/c4csc5ccccc45)ccc(c23)C(=O)N1C(CO)CO`
Response given: 64

Challenge: Give recorded MIC. `N#Cc1ccc(/C=N/Nc2ccc3c4c(cccc24)C(=O)N(C(CO)CO)C3=O)cc1`
Response given: 16

Challenge: Give recorded MIC. `O=C1c2cccc3c(N/N=C/c4cc(=O)oc5cc(O)ccc45)ccc(c23)C(=O)N1C(CO)CO`
Response given: 32

Challenge: Give recorded MIC. `O=C1c2cccc3c(N/N=C/c4nccs4)ccc(c23)C(=O)N1C(CO)CO`
Response given: 32

Challenge: Give recorded MIC. `Cc1ccc(/C=N/Nc2ccc3c4c(cccc24)C(=O)N(C(CO)CO)C3=O)cc1`
Response given: 32

Challenge: Give recorded MIC. `O=C1c2cccc3c(N/N=C/c4ccc(F)cc4)ccc(c23)C(=O)N1C(CO)CO`
Response given: 64

Measured values drawn from ChEMBL document CHEMBL5108027 for this set.
